# Tested on: MDA-MB-435
# experimentNotes: NCI tumour cell line growth inhibition, 48 h
Calls of active or inactive are those of the source. Cut-off read from the data, not from the text of the source: active = GI50 up to about 1.1 µM and inactive = higher.
Hello, when you answer, please use one of the following outcomes: active, inactive

# count of solved cases: 6
Query: State the result this test recorded for `Cc1ccc(/C=C2\CCCCCC2=O)cc1` .
Reply: inactive

Query: Please answer likewise for CC(CCOc1ccc2ccc(=O)oc2c1)C1=CC(=O)C(C)(C)O1 (centres undefined)
Reply: inactive

Query: Would you kindly repeat that for CCN1CCC(O)(/C=C/c2ccc(OC)cc2)C(C(=O)/C=C/c2ccc(OC)cc2)C1 (centres undefined) ?
Reply: inactive

Query: Now give it for `C=CCCC1(CCP(=O)(c2ccccc2)c2ccccc2)OCCO1` too.
Reply: inactive

Query: What about `O=C(CN1c2ccccc2Sc2ccccc21)N1CCNCC1` ?
Reply: inactive

Query: Proceed to CC12CC(c3ccccc3O1)C(C(=O)Nc1ccc(F)cc1)C(=O)N2 (centres undefined)
Reply: inactive

Further cases:
Query: Can you look up the reported call for O=C1CC(NC(=O)C(F)(F)F)c2c(Br)sc(N3CCC(c4ccccc4)CC3)c21 (centres undefined) for me?
Reply: inactive

Query: Another: `Cc1nc(-c2cc3c(ccc4ccccc43)oc2=O)cs1`
Reply: inactive

Query: `C[C@@H]1CC[C@H]2[C@H]1[C@H]1[C@@H](CC[C@]2(C)N=C=S)C1(C)C` , same question.
Reply: inactive

Query: Next record, please: COC(=O)CCN1CCN(CCO)CC1C (centres undefined)
Reply: inactive

Query: Try the compound `Fc1ccc(/C(=N/Cc2ccccc2)N2CCOCC2)cc1`
Reply: inactive

Query: Another compound: `CN(C)CC1=Nc2cccc3cccc(c23)N1`
Reply: inactive

Query: Consider next the compound COc1cc2c(cc1O)CCN[C@@]21CS[C@H]2c3c(OC(C)=O)c(C)c4c(c3C(COC1=O)N1C2C2NC(Cc3cc(C)c(OC)c(O)c32)[C@@H]1O)OCO4 (some centres undefined) in the same way.
Reply: active

Query: Note, next up: `O=c1c2c(no[n+]2[O-])c2ccccc2n1-c1ccccc1`
Reply: inactive
